Reported kinase still bound, per cent of control by item:
Test system: PIK3CA (human), P42336 [E545K]
Sequence (P42336 whole entry E545K, looked up): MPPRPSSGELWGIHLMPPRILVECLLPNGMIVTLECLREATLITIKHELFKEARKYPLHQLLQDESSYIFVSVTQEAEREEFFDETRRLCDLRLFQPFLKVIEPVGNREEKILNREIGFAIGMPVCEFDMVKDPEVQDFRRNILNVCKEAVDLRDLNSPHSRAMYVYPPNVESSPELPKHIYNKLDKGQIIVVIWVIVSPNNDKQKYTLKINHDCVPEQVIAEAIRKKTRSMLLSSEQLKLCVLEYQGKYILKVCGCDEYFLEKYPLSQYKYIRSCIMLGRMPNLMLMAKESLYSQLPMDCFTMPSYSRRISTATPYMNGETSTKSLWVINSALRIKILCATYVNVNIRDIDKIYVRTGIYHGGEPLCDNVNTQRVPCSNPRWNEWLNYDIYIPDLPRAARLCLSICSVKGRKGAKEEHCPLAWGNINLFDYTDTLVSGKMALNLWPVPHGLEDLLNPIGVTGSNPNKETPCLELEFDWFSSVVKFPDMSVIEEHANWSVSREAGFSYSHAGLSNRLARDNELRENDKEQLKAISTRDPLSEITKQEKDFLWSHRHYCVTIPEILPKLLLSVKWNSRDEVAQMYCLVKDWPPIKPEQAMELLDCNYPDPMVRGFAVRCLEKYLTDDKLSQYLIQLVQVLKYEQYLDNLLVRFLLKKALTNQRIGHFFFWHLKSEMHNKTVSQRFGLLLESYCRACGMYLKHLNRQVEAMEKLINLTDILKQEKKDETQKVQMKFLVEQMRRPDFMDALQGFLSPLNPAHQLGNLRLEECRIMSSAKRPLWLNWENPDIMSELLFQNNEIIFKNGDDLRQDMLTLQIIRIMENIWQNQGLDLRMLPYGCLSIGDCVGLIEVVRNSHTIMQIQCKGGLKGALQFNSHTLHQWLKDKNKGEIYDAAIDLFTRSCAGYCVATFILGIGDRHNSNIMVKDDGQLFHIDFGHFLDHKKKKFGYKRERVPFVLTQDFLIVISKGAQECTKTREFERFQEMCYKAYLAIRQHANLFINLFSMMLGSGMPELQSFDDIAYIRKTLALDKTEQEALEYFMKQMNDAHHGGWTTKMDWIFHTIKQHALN
Assay: KINOMEscan competition binding
Settings: compound 10.0 µM

[
  {
    "compound": "COc1cc(C(=O)N2CCC(N3CCN(C)CC3)CC2)ccc1Nc1ncc2c(n1)N(C)c1ccccc1C(=O)N2C",
    "kinase still bound, per cent of control / %": 100
  },
  {
    "compound": "COc1cc2c(Nc3ccc(NC(=O)c4ccccc4)cc3)ncnc2cc1OCCCN1CCOCC1",
    "kinase still bound, per cent of control / %": 98
  },
  {
    "compound": "CCN1CCN(Cc2ccc(Nc3ncc4c(n3)N(C)c3ccccc3C(=O)N4C)cc2C(F)(F)F)CC1",
    "kinase still bound, per cent of control / %": 24
  },
  {
    "compound": "CCN1CCN(C(=O)Cc2ccc(Nc3ncc(F)c(Nc4ccc(C(=O)Nc5ccccc5Cl)cc4)n3)cc2)CC1",
    "kinase still bound, per cent of control / %": 97
  },
  {
    "compound": "CC[C@@H]1C(=O)N(C)c2cnc(Nc3ccc(C(=O)NC4CCN(C)CC4)cc3OC)nc2N1C1CCCC1",
    "kinase still bound, per cent of control / %": 100
  },
  {
    "compound": "COc1cc(C)c(Sc2cnc(NC(=O)c3ccc(CNC(C)C(C)C)cc3)s2)cc1C(=O)N1CCN(C(C)=O)CC1 (stereo not given)",
    "kinase still bound, per cent of control / %": 100
  },
  {
    "compound": "C[C@@H](Oc1cc(-c2cnn(C3CCNCC3)c2)cnc1N)c1c(Cl)ccc(F)c1Cl",
    "kinase still bound, per cent of control / %": 100
  },
  {
    "compound": "CC1=C(C(=O)Nc2cc3cn[nH]c3cc2F)C(c2ccc(C(F)(F)F)cc2)CC(=O)N1 (stereo not given)",
    "kinase still bound, per cent of control / %": 100
  },
  {
    "compound": "O=c1cc(N2CCOCC2)oc2c(-c3cccc4c3sc3ccccc34)cccc12",
    "kinase still bound, per cent of control / %": 24
  },
  {
    "compound": "OCCCNc1cc(-c2ccnc(Nc3cccc(Cl)c3)n2)ccn1",
    "kinase still bound, per cent of control / %": 100
  },
  {
    "compound": "Cc1n[nH]c2ccc(-c3cncc(OC[C@@H](N)Cc4c[nH]c5ccccc45)c3)cc12",
    "kinase still bound, per cent of control / %": 100
  },
  {
    "compound": "CCCS(=O)(=O)Nc1ccc(F)c(C(=O)c2c[nH]c3ncc(-c4ccc(Cl)cc4)cc23)c1F",
    "kinase still bound, per cent of control / %": 100
  },
  {
    "compound": "NC(=O)Nc1cc(-c2cccc(F)c2)sc1C(=O)N[C@@H]1CCCNC1",
    "kinase still bound, per cent of control / %": 100
  },
  {
    "compound": "CCN(CC)CCCCNc1ncc2cc(-c3cc(OC)cc(OC)c3)c(NC(=O)NC(C)(C)C)nc2n1",
    "kinase still bound, per cent of control / %": 100
  },
  {
    "compound": "C=CC(=O)Nc1cccc(Oc2nc(Nc3ccc(N4CCN(C)CC4)cc3OC)ncc2Cl)c1",
    "kinase still bound, per cent of control / %": 100
  },
  {
    "compound": "O=C(O)c1ccc(Nc2ncc3c(n2)-c2ccc(Cl)cc2C(c2c(F)cccc2F)=NC3)cc1",
    "kinase still bound, per cent of control / %": 100
  },
  {
    "compound": "Cc1ccc2nc(NCCN)c3ncc(C)n3c2c1",
    "kinase still bound, per cent of control / %": 100
  },
  {
    "compound": "CCCS(=O)(=O)Nc1ccc(F)c(C(=O)c2c[nH]c3ncc(Cl)cc23)c1F",
    "kinase still bound, per cent of control / %": 100
  },
  {
    "compound": "COCC(=O)NC/C=C/c1ccc2ncnc(Nc3ccc(Oc4ccc(C)nc4)c(C)c3)c2c1",
    "kinase still bound, per cent of control / %": 100
  },
  {
    "compound": "CCN1CCN(Cc2ccc(NC(=O)c3ccc(C)c(/C=C/c4cnc5[nH]ccc5c4OC)c3)cc2C(F)(F)F)CC1",
    "kinase still bound, per cent of control / %": 100
  }
]

###

Test system: PIK3CA (human), P42336 [Q546K]
Sequence (P42336 whole entry Q546K, looked up): as the sequence (P42336 whole entry E545K, looked up) above, with K545E, Q546K counted along it
Experiment: KINOMEscan competition binding
Settings: compound 10.0 µM
// values below are reported kinase still bound, per cent of control

[
  {
    "structure-as-smiles": "C=CC(=O)Nc1cc(-n2c(=O)ccc3cnc4ccc(-c5cn[nH]c5)cc4c32)ccc1C",
    "units-of-measure": "%",
    "kinase still bound, per cent of control": 21
  },
  {
    "structure-as-smiles": "Cn1c(=O)n(-c2ccc(C(C)(C)C#N)cc2)c2c3cc(-c4cnc5ccccc5c4)ccc3ncc21",
    "units-of-measure": "%",
    "kinase still bound, per cent of control": 3.8
  },
  {
    "structure-as-smiles": "O=C(O)c1ccc(Nc2ncc3c(n2)-c2ccc(Cl)cc2C(c2c(F)cccc2F)=NC3)cc1",
    "units-of-measure": "%",
    "kinase still bound, per cent of control": 14
  },
  {
    "structure-as-smiles": "O=c1cc(N2CCOCC2)oc2c(-c3cccc4c3sc3ccccc34)cccc12",
    "units-of-measure": "%",
    "kinase still bound, per cent of control": 16
  },
  {
    "structure-as-smiles": "C[C@@H](Oc1cc(-n2cnc3ccc(CN4CCN(C)CC4)cc32)sc1C(N)=O)c1ccccc1C(F)(F)F",
    "units-of-measure": "%",
    "kinase still bound, per cent of control": 29
  },
  {
    "structure-as-smiles": "C=CC(=O)Nc1ccc(C(=O)c2sc(Nc3ccc(N4CCN(C)CC4)cc3OC)nc2N)cc1",
    "units-of-measure": "%",
    "kinase still bound, per cent of control": 100
  },
  {
    "structure-as-smiles": "N#C/C(=C1/Nc2ccccc2S1)c1ccnc(NCCc2cccnc2)n1",
    "units-of-measure": "%",
    "kinase still bound, per cent of control": 81
  },
  {
    "structure-as-smiles": "COc1cc(N2CCN(C)CC2)ccc1Nc1nc(N)c(C(=O)c2c(Cl)cccc2Cl)s1",
    "units-of-measure": "%",
    "kinase still bound, per cent of control": 78
  },
  {
    "structure-as-smiles": "Cc1ccc2nc(NCCN)c3ncc(C)n3c2c1",
    "units-of-measure": "%",
    "kinase still bound, per cent of control": 38
  }
]

###

Listed here are molecules together with their documented kinase still bound, per cent of control.
Target: ICK (human) (UniProt Q9UPZ9)
Sequence (Q9UPZ9 whole entry, looked up): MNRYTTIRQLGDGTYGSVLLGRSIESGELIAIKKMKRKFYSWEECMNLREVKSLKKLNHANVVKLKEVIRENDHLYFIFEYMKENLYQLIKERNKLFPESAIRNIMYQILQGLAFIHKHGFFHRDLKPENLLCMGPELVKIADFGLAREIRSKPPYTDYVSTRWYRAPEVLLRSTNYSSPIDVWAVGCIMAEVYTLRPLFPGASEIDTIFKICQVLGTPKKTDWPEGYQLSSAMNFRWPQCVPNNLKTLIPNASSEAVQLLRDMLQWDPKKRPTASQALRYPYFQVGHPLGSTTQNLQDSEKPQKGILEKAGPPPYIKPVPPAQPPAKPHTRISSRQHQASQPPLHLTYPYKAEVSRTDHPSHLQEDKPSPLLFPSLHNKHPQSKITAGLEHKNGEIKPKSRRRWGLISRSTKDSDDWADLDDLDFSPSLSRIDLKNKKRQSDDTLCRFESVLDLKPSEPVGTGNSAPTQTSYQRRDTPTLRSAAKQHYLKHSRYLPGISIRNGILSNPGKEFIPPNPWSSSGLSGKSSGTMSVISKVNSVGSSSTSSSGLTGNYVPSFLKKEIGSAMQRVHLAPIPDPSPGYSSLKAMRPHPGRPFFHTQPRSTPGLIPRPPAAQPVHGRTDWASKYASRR
Test: KINOMEscan competition binding
Details: compound 10.0 µM
measured-quantity: kinase still bound, per cent of control (%)

[
  {
    "structure-as-smiles": "COc1cc(C(=O)NC2CCN(C)CC2)ccc1Nc1ncc2c(n1)N(C1CCCC1)CCC(=O)N2C(C)C",
    "measured-quantity": "kinase still bound, per cent of control",
    "units-of-measure": "%",
    "value-observed": 100
  },
  {
    "structure-as-smiles": "CCN1CCN(Cc2ccc(Nc3ncc4c(n3)N(C)c3ccccc3C(=O)N4C)cc2C(F)(F)F)CC1",
    "measured-quantity": "kinase still bound, per cent of control",
    "units-of-measure": "%",
    "value-observed": 80
  },
  {
    "structure-as-smiles": "CCC(=O)N1CCN(c2ccc(-n3c(=O)ccc4cnc5ccc(-c6cnc7ccccc7c6)cc5c43)cc2C(F)(F)F)CC1",
    "measured-quantity": "kinase still bound, per cent of control",
    "units-of-measure": "%",
    "value-observed": 100
  },
  {
    "structure-as-smiles": "O=C(NC1CC1)c1cccc(-c2ccc3c(NC(=O)C4CC4)n[nH]c3c2)c1",
    "measured-quantity": "kinase still bound, per cent of control",
    "units-of-measure": "%",
    "value-observed": 13
  },
  {
    "structure-as-smiles": "Cc1ccc(NC(=O)c2cccc(C(C)(C)C#N)c2)cc1Nc1ccc2ncn(C)c(=O)c2c1",
    "measured-quantity": "kinase still bound, per cent of control",
    "units-of-measure": "%",
    "value-observed": 100
  },
  {
    "structure-as-smiles": "C=CC(=O)Nc1cc(NC(=O)c2ccc(C)c(NC(=O)c3ccno3)c2)cc(C(F)(F)F)c1",
    "measured-quantity": "kinase still bound, per cent of control",
    "units-of-measure": "%",
    "value-observed": 75
  },
  {
    "structure-as-smiles": "CCCS(=O)(=O)Nc1ccc(F)c(C(=O)c2c[nH]c3ncc(-c4ccc(Cl)cc4)cc23)c1F",
    "measured-quantity": "kinase still bound, per cent of control",
    "units-of-measure": "%",
    "value-observed": 73
  },
  {
    "structure-as-smiles": "COc1cc(N2CCN(C)CC2)ccc1Nc1nc(N)c(C(=O)c2c(Cl)cccc2Cl)s1",
    "measured-quantity": "kinase still bound, per cent of control",
    "units-of-measure": "%",
    "value-observed": 7.4
  },
  {
    "structure-as-smiles": "O=C(NOC[C@H](O)CO)c1ccc(F)c(F)c1Nc1ccc(I)cc1F",
    "measured-quantity": "kinase still bound, per cent of control",
    "units-of-measure": "%",
    "value-observed": 84
  },
  {
    "structure-as-smiles": "O=C(O)c1ccc(Nc2ncc3c(n2)-c2ccc(Cl)cc2C(c2c(F)cccc2F)=NC3)cc1",
    "measured-quantity": "kinase still bound, per cent of control",
    "units-of-measure": "%",
    "value-observed": 86
  },
  {
    "structure-as-smiles": "O=C1Nc2ccc(I)cc2/C1=C/c1cc(Br)c(O)c(Br)c1",
    "measured-quantity": "kinase still bound, per cent of control",
    "units-of-measure": "%",
    "value-observed": 88
  },
  {
    "structure-as-smiles": "CCOc1cc2ncc(C#N)c(Nc3ccc(OCc4ccccn4)c(Cl)c3)c2cc1NC(=O)/C=C/CN(C)C",
    "measured-quantity": "kinase still bound, per cent of control",
    "units-of-measure": "%",
    "value-observed": 100
  },
  {
    "structure-as-smiles": "Cc1cc([C@@H](C)Nc2ccccc2C(=O)O)c2nc(N3CCOCC3)cc(=O)n2c1",
    "measured-quantity": "kinase still bound, per cent of control",
    "units-of-measure": "%",
    "value-observed": 100
  },
  {
    "structure-as-smiles": "Nc1ccc(-c2ccc3ncc4ccc(=O)n(-c5cccc(C(F)(F)F)c5)c4c3c2)cn1",
    "measured-quantity": "kinase still bound, per cent of control",
    "units-of-measure": "%",
    "value-observed": 79
  },
  {
    "structure-as-smiles": "CN(C)C/C=C/C(=O)Nc1cccc(Nc2ncc3c(n2)N(C)c2ccccc2C(=O)N3C)c1",
    "measured-quantity": "kinase still bound, per cent of control",
    "units-of-measure": "%",
    "value-observed": 70
  },
  {
    "structure-as-smiles": "Cn1c(=O)n(-c2ccc(C(C)(C)C#N)cc2)c2c3cc(-c4cnc5ccccc5c4)ccc3ncc21",
    "measured-quantity": "kinase still bound, per cent of control",
    "units-of-measure": "%",
    "value-observed": 100
  },
  {
    "structure-as-smiles": "C[C@@H](Oc1cc(-n2cnc3ccc(CN4CCN(C)CC4)cc32)sc1C(N)=O)c1ccccc1C(F)(F)F",
    "measured-quantity": "kinase still bound, per cent of control",
    "units-of-measure": "%",
    "value-observed": 85
  },
  {
    "structure-as-smiles": "OCCCNc1cc(-c2ccnc(Nc3cccc(Cl)c3)n2)ccn1",
    "measured-quantity": "kinase still bound, per cent of control",
    "units-of-measure": "%",
    "value-observed": 2.2
  },
  {
    "structure-as-smiles": "C=CC(=O)Nc1cccc(Nc2nc(N[C@H]3CC[C@H](N(C)C)CC3)nc3c2ncn3C(C)C)c1",
    "measured-quantity": "kinase still bound, per cent of control",
    "units-of-measure": "%",
    "value-observed": 100
  },
  {
    "structure-as-smiles": "N#Cc1c(NC(=O)c2cccc3ccccc23)sc2c1CCCC2",
    "measured-quantity": "kinase still bound, per cent of control",
    "units-of-measure": "%",
    "value-observed": 81
  }
]
